Each recorded value in this set is attributed to ChEMBL document CHEMBL1140064.

Molecular target: Translocator protein (Rattus norvegicus, UniProt P16257)
Sequence (P16257 whole entry, looked up): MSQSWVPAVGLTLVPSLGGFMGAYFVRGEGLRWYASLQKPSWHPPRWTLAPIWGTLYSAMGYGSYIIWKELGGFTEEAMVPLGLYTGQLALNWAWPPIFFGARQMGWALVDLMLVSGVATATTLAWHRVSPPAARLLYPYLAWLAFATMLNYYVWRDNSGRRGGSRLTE
pKi: −log10 of the molar value.
Give t when the value for pKi is at least 8. Give f when it is less.

Dear colleague, could you confirm whether "CCCCCN(C)C(=O)C(=O)c1c(-c2ccc(Cl)cc2)[nH]c2ccc(Cl)cc12" has pKi at or above 8? t

Determine whether measured pKi meets or exceeds 8 for "CCCN(CCC)C(=O)C(=O)c1c(-c2ccccc2)[nH]c2ccc(OC)cc12" f

Evaluate "CCN(Cc1ccccc1)C(=O)C(=O)c1c(-c2ccc(F)cc2)[nH]c2ccccc12" : pKi at minimum 8? t

Say whether "CCCN(CCC)C(=O)C(=O)c1c(-c2ccccc2)[nH]c2ccc([N+](=O)[O-])cc12" shows pKi of 8 or more. f
